assay: Half life in Sprague-Dawley rat at 2 mg/kg, iv
Type: ADME, organism-based
Parameters: dose 2 mg/kg, route intravenous
condition set: in vivo
measured metric: half-life (h)
Answers are plain numbers, in h.

Task: Reported half-life, compound Cc1nc(-c2ccc3c(c2)c(C#N)cn3C(C)C)sc1C(=O)O : ____
Result: 4.37

* * *

assay: Half life in rat liver microsomes
Format: ADME
Outcome: met for half-life of at least 0.5 h; not met for anything lower.

compound	class assignment
Cc1nc(-c2ccc3c(c2)c(Cl)cn3CC(C)C)sc1C(=O)O	not met

Task: Given Cc1nc(-c2ccc3c(c2)c(Cl)cn3C(C)C)sc1C(=O)O , state whether its half-life is at least 0.5 h.
Result: met

Reference source: ChEMBL document CHEMBL3399928
